# systemName: σ1 receptor (Cavia porcellus)
# Construct: tissue Harlan Winkelmann; host or cells: guinea pig brain membranes
# Sequence (Q60492 whole entry): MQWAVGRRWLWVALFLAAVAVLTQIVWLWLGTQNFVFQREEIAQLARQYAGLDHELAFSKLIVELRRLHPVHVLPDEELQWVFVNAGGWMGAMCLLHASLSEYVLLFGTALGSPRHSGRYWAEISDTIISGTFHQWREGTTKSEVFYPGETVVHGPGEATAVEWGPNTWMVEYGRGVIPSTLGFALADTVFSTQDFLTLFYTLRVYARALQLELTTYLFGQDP
# test: Receptor binding assay with [3H]-(+)-pentazocine on guinea pig brain membranes
# appliedConditions: 2 nM [3H]-(+)-pentazocine; guinea pig brain membranes; 180 min at 37 °C; mean ± SEM; read-out: affinity to the σ1 receptor
Property: log10 Ki; scope: individual compounds
Friendly reminder: values = log10 of Ki, unit nM.

// known answers, use as guide
compound=COc1ccc2c(c1)CCN(CCCCc1ccccc1)[C@@H](C)[C@H]2O systemname="σ1 receptor (Cavia porcellus)" measurementlabel="log10 Ki" valuereported=1.62
compound=C[C@@H]1[C@@H](O)c2ccc(O)cc2CCN1CCCCc1ccccc1 systemname="σ1 receptor (Cavia porcellus)" measurementlabel="log10 Ki" valuereported=2.93
compound="COc1ccc2c(c1)CCN(CCCCc1ccccc1)CC2O (stereo not shown)" systemname="σ1 receptor (Cavia porcellus)" measurementlabel="log10 Ki" valuereported=2.26
compound="COc1ccc2c(c1)CCN(C1CCC(c3ccccc3)CC1)CC2O (stereo not shown)" systemname="σ1 receptor (Cavia porcellus)" measurementlabel="log10 Ki" valuereported=1.52

Please find the next compound below.
Query (compound): COc1ccc2c(c1)CCN(CCCCc1ccccc1)[C@H](C)[C@@H]2O ; field requested: log10 Ki
0.51
